Entry source: patent US11713305B2

Listed below: r1 No Zn^2+ values for each entry.
- test: r1 relaxivity measurements (20 MHz, 0.5 T, 37° C.)
- Assay type: physicochemical
- details: 100 mM Tris buffer, no Zn^2+, no HSA
The reply should be a number in s⁻¹ mM⁻¹, with the unit left off.

Look over these answered cases.
- O=C(O)CN1CCN(CC(=O)O)CCN(CC(=O)NCCN(CCc2ccccn2)Cc2ccccn2)CCN(CC(=O)O)CC1: 4.7
- O=C(O)CN1CCN(CCC(=O)NCCN(Cc2ccccn2)Cc2ccccn2)CCN(CC(=O)O)CCN(CC(=O)O)CC1: 4.9
- O=C(O)CN1CCN(CCC(=O)NCCN(CCc2ccccn2)Cc2ccccn2)CCN(CC(=O)O)CCN(CC(=O)O)CC1: 4.9
- O=C(O)CN1CCN(CC(=O)O)CCN(CC(=O)NCCN(Cc2ccccn2)Cc2ccccn2)CCN(CC(=O)O)CC1: 4.8

Here's the next entry for you.
Consider the molecule shown here: `O=C(O)CCN1CCN(CC(=O)O)CCN(CC(=O)NCCN(Cc2ccccn2)Cc2ccccn2)CCN(CC(=O)O)CC1` What is its recorded r1 No Zn^2+?
5.0
